Target: Acetylcholinesterase (AChE) (Rattus norvegicus, UniProt P37136)
Construct: The brain was removed and homogenised; from tissue; host or cells: rat brain (male Sprague Dawley), Triton X100 detergent supernatant of the EDTA-buffer pellet
Sequence (P37136 32-614): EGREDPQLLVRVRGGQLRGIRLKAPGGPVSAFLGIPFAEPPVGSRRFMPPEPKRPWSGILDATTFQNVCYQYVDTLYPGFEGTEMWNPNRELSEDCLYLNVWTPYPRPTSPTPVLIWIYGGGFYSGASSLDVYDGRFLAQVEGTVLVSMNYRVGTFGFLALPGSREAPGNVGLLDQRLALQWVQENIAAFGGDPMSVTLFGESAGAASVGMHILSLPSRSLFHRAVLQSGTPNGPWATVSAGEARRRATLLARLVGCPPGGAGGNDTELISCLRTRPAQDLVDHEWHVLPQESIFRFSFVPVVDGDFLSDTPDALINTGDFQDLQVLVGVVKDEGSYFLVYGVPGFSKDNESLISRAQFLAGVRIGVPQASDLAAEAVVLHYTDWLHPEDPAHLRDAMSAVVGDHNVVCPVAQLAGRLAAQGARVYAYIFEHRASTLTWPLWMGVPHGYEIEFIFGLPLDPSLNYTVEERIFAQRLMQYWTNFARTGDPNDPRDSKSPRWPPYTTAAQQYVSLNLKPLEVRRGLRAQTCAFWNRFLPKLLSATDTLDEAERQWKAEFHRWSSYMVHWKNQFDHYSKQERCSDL
Assay: biochemical
Type: biochemical, Male Rats (Sprague Dawley), brain
Settings: Table 1; form SALT; ±SEM, n = 5; read-out: IC50 AChE
Protocol: (i) Enzyme Source for AChE 5 Male Rats (Sprague Dawley) weighing approx 250 g were killed by CO2 overdose and cervical dislocation. […] Change in absorbance was measured at 30 second intervals for 3 minutes at 324 mm. […] Inhibitor was calculated as a percentage of the control. A graph of Log of inhibitor conc. versus % control was plotted and IC5. values calculated by interpolation.
pIC50: −log10 of the molar value.
Response key: t means pIC50 >= 5; f means pIC50 < 5.

As a guide, the following entries are already answered.
{"molecule": "Nc1c2c(nc3ccccc13)-c1ccccc1CCC2 [Compound 6]", "classification": "f"}
{"molecule": "COc1ccc2c(c1)CCCc1c-2nc2ccccc2c1N [Compound 1]", "classification": "f"}
{"molecule": "Nc1c2c(nc3ccccc13)-c1ccc(Cl)cc1CC2 [Compound 5]", "classification": "f"}
{"molecule": "Nc1c2c(nc3ccccc13)-c1ccccc1C2 [Compound 2]", "classification": "t"}

# ---- query molecule ----
Hi team, for COc1cccc2c1CCc1c-2nc2ccccc2c1N [Compound 4] , is the recorded pIC50 at or above 5?
f

* * *

Target: Acetylcholinesterase (AChE) (Rattus norvegicus, UniProt P37136)
Construct: The brain was removed and homogenised; from tissue; host or cells: rat brain (male Sprague Dawley), Triton X100 detergent supernatant of the EDTA-buffer pellet
Test: biochemical
Type: biochemical, Male Rats (Sprague Dawley), brain
Details: Table 2; read-out: AChE IC50
Field 'label' (enum: TRUE / FALSE). Set to TRUE when IC50 is strictly under 100 nM; else FALSE.

The following compounds have reported results that may help.
{"compound": "Nc1c2c(nc3cc(F)c(F)cc13)CCC2 [Compound 8]", "test_system": "Acetylcholinesterase (AChE) (Rattus norvegicus, UniProt P37136)", "classification": "TRUE"}
{"compound": "COc1ccc2nc3c(c(N)c2c1)Cc1ccccc1-3 [Compound 36]", "test_system": "Acetylcholinesterase (AChE) (Rattus norvegicus, UniProt P37136)", "classification": "FALSE"}
{"compound": "Cc1ccc(C)c2c(N)c3c(nc12)CCC3 [Compound 20]", "test_system": "Acetylcholinesterase (AChE) (Rattus norvegicus, UniProt P37136)", "classification": "FALSE"}
{"compound": "Nc1c2c(nc3cccc(Cl)c13)CCC2 [Compound 16]", "test_system": "Acetylcholinesterase (AChE) (Rattus norvegicus, UniProt P37136)", "classification": "FALSE"}
{"compound": "Nc1c2c(nc3cccc(F)c13)CCC2 [Compound 14]", "test_system": "Acetylcholinesterase (AChE) (Rattus norvegicus, UniProt P37136)", "classification": "TRUE"}

Lab note: confirm whether the reported IC50 for this compound is below 100 nM, equality not counting. compound: Nc1c2c(nc3cc(Cl)ccc13)CCC2 [Compound 17]
TRUE

* * *

System: noradrenaline (NA) uptake
Assay: Monoamine Uptake Inhibition Assay, noradrenaline (synaptosomal preparation)
Assay type: biochemical, rat (Sprague Dawley)
Details: Table 1; form SALT; n = 5; read-out: IC50 NA UPTAKE
property: pIC50
Numbers only, as −log10 of the molar value.

Consider the reported pIC50 for these compounds:
{"compound": "Nc1c2c(nc3ccccc13)-c1ccccc1CCC2", "pIC50": 5.72}
{"compound": "COc1cccc2c1CCc1c-2nc2ccccc2c1N", "pIC50": 4.91}
{"compound": "Nc1c2c(nc3ccccc13)-c1ccccc1CC2 [Compound 3, 7 Amino-5,6-dihydro-benz-[c]-acridine]", "pIC50": 4.88}
{"compound": "Nc1c2c(nc3ccccc13)-c1ccc(Cl)cc1CC2", "pIC50": 5.21}
{"compound": "Nc1c2c(nc3ccccc13)-c1ccccc1C2", "pIC50": 5.64}

The value of pIC50 measured for the compound COc1ccc2c(c1)CCCc1c-2nc2ccccc2c1N turned out to be 5.74
